TESTED_ON: ZFP SBS#1038 (synthetic)
Sequence (chain, as listed by the source): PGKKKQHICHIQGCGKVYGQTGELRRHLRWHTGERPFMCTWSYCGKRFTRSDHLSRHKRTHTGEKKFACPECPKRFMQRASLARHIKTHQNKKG
TEST: EMSA
EXPERIMENTAL_SETUP: tags: MBP fusion
MEASUREMENT_NAME: Kd (nM)
Give the number; nM is assumed, so skip it.

Prompt: Name the reported Kd value associated with the binder GTAGGGGCA (dsDNA) DNA 1: GTAGGGGCA DNA 2: TGCCCCTAC
Response: 0.152
